- testedOn: FITC-labeled MYB peptide (MYB25)
- Sequence (P06876 291-315): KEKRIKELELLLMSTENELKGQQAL
- assayText: fluorescence polarisation
pKd: −log10 of the molar value.
reportedEndpoint: pKd

# substance, testedOn, result
rows = [
    ("D647A CREBBP KIX domain (from UniProt Q92793 585-672) (domain or fragment)", "FITC-labeled MYB peptide (MYB25)", 5.17),
    ("CREBBP KIX domain (from UniProt Q92793 585-672) (domain or fragment)", "FITC-labeled MYB peptide (MYB25)", 4.66),
]

----------
- testedOn: purified KIX domain of CREBBP (Mus musculus)
- Sequence (P45481 585-672): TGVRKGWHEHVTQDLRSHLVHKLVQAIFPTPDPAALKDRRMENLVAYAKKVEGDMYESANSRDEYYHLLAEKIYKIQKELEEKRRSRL
- assayText: FP assay, direct binding of fluorophore-labeled peptides to CREBBP KIX
Ends that are not written are not given here.

# residueString, unitText, Kd
rows = [
    ("SDDGNILPSDIMDFVLKNTPSMQAL [MLL25]", "µM", 94),
]

----------
- testedOn: rhodamine-labeled MLL peptide (MLL25)
- assayText: fluorescence polarisation

# substance, Kd (µM)
data = [
    ("CREBBP KIX domain (from UniProt Q92793 585-672) (domain or fragment)", 94),
]
